# Test Target: human kinase Mps-1 (Homo sapiens, UniProt P33981)
# Construct: N-terminally GST-tagged human full length recombinant Mps-1 kinase
# Sequence (P33981 whole entry): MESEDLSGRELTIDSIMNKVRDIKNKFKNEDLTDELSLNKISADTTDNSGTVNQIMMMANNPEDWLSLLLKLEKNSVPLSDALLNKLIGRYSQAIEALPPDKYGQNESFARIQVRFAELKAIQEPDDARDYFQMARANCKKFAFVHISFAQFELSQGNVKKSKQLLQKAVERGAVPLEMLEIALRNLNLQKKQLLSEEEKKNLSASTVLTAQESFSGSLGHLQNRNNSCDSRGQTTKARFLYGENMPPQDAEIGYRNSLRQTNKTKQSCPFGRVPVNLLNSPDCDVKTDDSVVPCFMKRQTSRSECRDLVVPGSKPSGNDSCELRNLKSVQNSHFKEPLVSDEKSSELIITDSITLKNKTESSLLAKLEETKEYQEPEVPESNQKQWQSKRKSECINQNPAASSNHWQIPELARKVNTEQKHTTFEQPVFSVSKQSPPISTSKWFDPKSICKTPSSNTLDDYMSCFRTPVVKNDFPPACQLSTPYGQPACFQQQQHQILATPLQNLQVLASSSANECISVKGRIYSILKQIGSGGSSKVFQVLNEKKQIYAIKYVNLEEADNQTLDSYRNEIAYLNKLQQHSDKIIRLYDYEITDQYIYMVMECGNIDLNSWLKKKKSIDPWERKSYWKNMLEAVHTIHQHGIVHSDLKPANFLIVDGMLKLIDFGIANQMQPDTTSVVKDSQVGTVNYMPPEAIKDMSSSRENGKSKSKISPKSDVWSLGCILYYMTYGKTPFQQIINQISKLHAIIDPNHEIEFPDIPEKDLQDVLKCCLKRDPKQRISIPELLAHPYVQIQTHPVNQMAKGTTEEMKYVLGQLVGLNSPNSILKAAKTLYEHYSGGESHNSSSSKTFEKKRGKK
# Assay Explanation: Mps-1 Kinase Assay (TR-FRET)
# Condition Label: N-terminally GST-tagged human full length recombinant Mps-1; 10 μM ATP; 1 μM biotinylated peptide substrate; 60 min at 22° C.; read-out: MPS1 Inhibition, IC50 in M
This section presents molecules with their documented IC50 values.
Numbers only here, please. The scale is nM.

Previously resolved entries follow.
# Molecule, IC50 / nM
data = [
    ("N#Cc1ccccc1Nc1nc2ccc(-c3ccc(NC(=O)Cc4cccnc4)cc3)cn2n1", 3.5),
    ("COc1ccccc1Nc1nc2ccc(-c3cccc(NC(=O)N4CCN(C)CC4)c3)cn2n1", 620),
    ("N#Cc1ccccc1Nc1nc2ccc(-c3cccc(C(=O)Nc4ccccc4)c3)cn2n1", 65),
]

Query NC(C(=O)Nc1ccc(-c2ccc3nc(Nc4ccccc4C(F)(F)F)nn3c2)cc1)c1ccccc1 (racemic) on human kinase Mps-1 (Homo sapiens, UniProt P33981); IC50 returned: 14

Query `N#Cc1ccccc1Nc1nc2ccc(-c3cccc(C(=O)NC4CC4)c3)cn2n1` on human kinase Mps-1 (Homo sapiens, UniProt P33981); IC50 returned: 4.4

Query `COc1ccccc1Nc1nc2ccc(-c3cccc(NC(=O)N4CCC(N(C)C)CC4)c3)cn2n1` on human kinase Mps-1 (Homo sapiens, UniProt P33981); IC50 returned: 640

Query `CN1CCC(NC(=O)c2cccc(-c3ccc4nc(Nc5ccccc5C#N)nn4c3)c2)CC1` on human kinase Mps-1 (Homo sapiens, UniProt P33981); IC50 returned: 74

Query `COc1ccccc1Nc1nc2ccc(-c3cccc(NC(=O)c4ccccc4)c3)cn2n1` on human kinase Mps-1 (Homo sapiens, UniProt P33981); IC50 returned: 290

Query `O=C(CN1CCCCC1)Nc1ccc(-c2ccc3nc(Nc4ccccc4C(F)(F)F)nn3c2)cc1` on human kinase Mps-1 (Homo sapiens, UniProt P33981); IC50 returned: 880

Query `O=C(CN1CCOCC1)Nc1ccc(-c2ccc3nc(Nc4ccccc4C(F)(F)F)nn3c2)cc1` on human kinase Mps-1 (Homo sapiens, UniProt P33981); IC50 returned: 3300
